Target: C3 purified from fresh human plasma (human, UniProt P01024 23-1663)
Sequence (P01024 23-1663): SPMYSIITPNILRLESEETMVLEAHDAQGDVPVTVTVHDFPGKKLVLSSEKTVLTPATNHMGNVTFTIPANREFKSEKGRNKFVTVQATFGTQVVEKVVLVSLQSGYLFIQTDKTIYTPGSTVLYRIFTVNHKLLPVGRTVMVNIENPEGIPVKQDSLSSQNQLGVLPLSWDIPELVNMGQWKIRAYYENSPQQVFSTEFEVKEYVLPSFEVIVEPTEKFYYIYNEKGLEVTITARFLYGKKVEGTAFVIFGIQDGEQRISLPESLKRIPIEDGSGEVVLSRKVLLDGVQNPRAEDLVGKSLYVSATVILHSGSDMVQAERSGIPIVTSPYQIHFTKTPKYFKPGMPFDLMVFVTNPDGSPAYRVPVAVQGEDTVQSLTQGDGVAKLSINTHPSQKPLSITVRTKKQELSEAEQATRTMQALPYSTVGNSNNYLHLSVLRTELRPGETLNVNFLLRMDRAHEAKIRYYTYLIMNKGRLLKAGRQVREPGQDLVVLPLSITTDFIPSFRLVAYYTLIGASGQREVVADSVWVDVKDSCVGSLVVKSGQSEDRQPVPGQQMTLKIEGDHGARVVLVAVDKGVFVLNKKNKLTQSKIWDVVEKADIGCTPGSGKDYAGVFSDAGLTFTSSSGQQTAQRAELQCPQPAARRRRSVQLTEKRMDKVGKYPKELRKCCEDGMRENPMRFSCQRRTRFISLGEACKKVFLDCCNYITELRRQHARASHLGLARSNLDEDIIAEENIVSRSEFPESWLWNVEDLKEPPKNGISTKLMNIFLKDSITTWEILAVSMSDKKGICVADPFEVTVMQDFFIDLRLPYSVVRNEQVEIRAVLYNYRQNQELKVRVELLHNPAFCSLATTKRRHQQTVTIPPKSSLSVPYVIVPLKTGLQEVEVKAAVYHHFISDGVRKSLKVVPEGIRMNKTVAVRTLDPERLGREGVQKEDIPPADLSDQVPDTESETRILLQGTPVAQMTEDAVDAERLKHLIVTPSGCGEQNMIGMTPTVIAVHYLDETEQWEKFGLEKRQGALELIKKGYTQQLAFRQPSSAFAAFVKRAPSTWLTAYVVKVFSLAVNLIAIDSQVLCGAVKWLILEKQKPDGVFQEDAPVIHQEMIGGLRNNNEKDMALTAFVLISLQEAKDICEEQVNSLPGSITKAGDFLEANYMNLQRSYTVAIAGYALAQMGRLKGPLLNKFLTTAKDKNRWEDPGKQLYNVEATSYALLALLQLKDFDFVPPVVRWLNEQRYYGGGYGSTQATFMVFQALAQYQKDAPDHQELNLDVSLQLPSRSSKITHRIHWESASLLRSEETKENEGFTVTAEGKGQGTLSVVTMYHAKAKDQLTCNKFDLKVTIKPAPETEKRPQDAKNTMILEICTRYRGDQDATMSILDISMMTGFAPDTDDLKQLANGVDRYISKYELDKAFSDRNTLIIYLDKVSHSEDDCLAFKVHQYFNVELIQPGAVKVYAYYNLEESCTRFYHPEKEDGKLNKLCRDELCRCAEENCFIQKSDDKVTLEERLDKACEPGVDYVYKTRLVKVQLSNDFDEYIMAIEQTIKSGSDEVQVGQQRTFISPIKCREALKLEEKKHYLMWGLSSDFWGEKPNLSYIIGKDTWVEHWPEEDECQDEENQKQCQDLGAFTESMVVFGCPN
Experiment: cell-based or functional assay
Bridge positions count the residues as written; N and C are the ends. Square brackets hold non-standard residues; d marks the D form. Trp(1-Me) = Cn1cc(C[C@H](N)C(=O)O)c2ccccc21; NMeI = CC[C@H](C)[C@H](NC)C(=O)O; Sar = CNCC(=O)O
Listed next: entries and their corresponding rP, relative potency compared to peptide 14.
PARAMETER: rP, relative potency compared to peptide 14 (fold)

{"BINDER": "Ac-ICV[Trp(1-Me)]QDW[Sar]AHRC[NMeI]-NH2 (disulfide 2-12; SMILES CC[C@H](C)[C@H](NC(C)=O)C(=O)N[C@H]1CSSC[C@@H](C(=O)N(C)[C@H](C(N)=O)[C@@H](C)CC)NC(=O)[C@H](CCCNC(=N)N)NC(=O)[C@H](Cc2c[nH]cn2)NC(=O)[C@H](C)NC(=O)CN(C)C(=O)[C@H](Cc2c[nH]c3ccccc23)NC(=O)[C@H](CC(=O)O)NC(=O)[C@H](CCC(N)=O)NC(=O)[C@H](Cc2cn(C)c3ccccc23)NC(=O)[C@H](C(C)C)NC1=O, Sar^8, (NMe)Ile^13; also called peptide 21; analog 21) [Ac-Ic[CV(1-MeW)QDW(N-MeG)AHRC](N-MeI)-NH2]", "VAL": 3.3}
{"BINDER": "Ac-ICV[Trp(1-Me)]QDW[Sar]AHRCF-NH2 (disulfide 2-12; SMILES CC[C@H](C)[C@H](NC(C)=O)C(=O)N[C@H]1CSSC[C@@H](C(=O)N[C@@H](Cc2ccccc2)C(N)=O)NC(=O)[C@H](CCCNC(=N)N)NC(=O)[C@H](Cc2c[nH]cn2)NC(=O)[C@H](C)NC(=O)CN(C)C(=O)[C@H](Cc2c[nH]c3ccccc23)NC(=O)[C@H](CC(=O)O)NC(=O)[C@H](CCC(N)=O)NC(=O)[C@H](Cc2cn(C)c3ccccc23)NC(=O)[C@H](C(C)C)NC1=O) [peptide 23]", "VAL": 0.8}
